Quantity Kind: melting point

Examples with answers:
# Molecule, Result
measured = [
    ("CNc1ncc2c(-c3cccc(Cl)c3)cc(-c3ccc(C(=O)O)cc3)c(O)c2n1 [Compound 112]", "291 to 296 °C"),
    ("CNc1ncc2c(-c3cccc(Cl)c3)cc(-c3ccc(CCC(=O)O)cc3)c(OC)c2n1 [Compound 55]", "208 to 213 °C"),
    ("CNc1ncc2c(-c3cccc(Cl)c3)cc(-c3cccc(CC(=O)O)c3)c(OC)c2n1 [Compound 59]", "258 to 261 °C"),
]

// switching to the query molecule
Query string: Give its melting point value. Item: CNc1ncc2c(-c3cccc(Cl)c3)cc(/C=C/C(=O)O)c(OC)c2n1 [Compound 95]
Result string: 291 to 295 °C

Measured values drawn from patent US20070225308A1 for this set.
